target: N-terminal GST tagged recombinant human RET cytoplasmic domain (aa 658-end), wild type RET kinase (Homo sapiens (Human)); test: RET Enzyme Assay (HTRF KinEASE-TK), wild type RET; assay type: biochemical; conditions: wild type RET, 1 mM ATP
Please go through the items and note down their pIC50.
Please treat pIC50 as minus the base-10 logarithm of the molar concentration.

Specify measured pIC50 for Cn1cc(-c2cc(-c3ccc(N4CCN(C(=O)[C@H](O)C(F)(F)F)CC4)nc3)c3c(C#N)cnn3c2)cn1 .
8.26

Specify measured pIC50 for Cn1cc(-c2cc(-c3ccc(N4CCN(C(=O)OC(C)(C)C)CC4)nc3)c3c(C#N)cnn3c2)cn1 .
7.45

Specify measured pIC50 for CCNC(=O)N1CCN(c2ccc(-c3cc(-c4cnn(C)c4)cn4ncc(C#N)c34)cn2)CC1 .
8.26

Specify measured pIC50 for Cn1cc(-c2cc(-c3ccc(N4CCN(C(=O)CC(C)(C)O)CC4)nc3)c3c(C#N)cnn3c2)cn1 .
7.84

Specify measured pIC50 for COc1ccc(CN2CCN(c3ccc(-c4cc(-c5cnn(C)c5)cn5ncc(Cl)c45)cn3)CC2)cn1 .
7.43

Specify measured pIC50 for CONC(=O)C1CCN(c2ccc(-c3cc(-c4cnn(C)c4)cn4ncc(C#N)c34)cn2)CC1 .
8.19

Specify measured pIC50 for Cn1cc(-c2cc(-c3ccc(N4CCC(C(=O)NCC(F)(F)F)CC4)nc3)c3c(C#N)cnn3c2)cn1 .
8.25

Specify measured pIC50 for CCC1(C(=O)NC(C)C)CCN(c2ccc(-c3cc(-c4cnn(C)c4)cn4ncc(C#N)c34)cn2)CC1 .
7.89

###

molecular target: human KDR protein in HEK-293 cells (Homo sapiens (Human), UniProt P35968); experiment: KDR Cell Assay (phospho-KDR in HEK-293 cells expressing inducible KDR); assay type: cell-based; conditions: pKDR Cell HEK 10% FBS IC50, HEK-293 cells expressing inducible KDR, VEGF stimulated, 10% FBS
Sequence (P35968 20-1356): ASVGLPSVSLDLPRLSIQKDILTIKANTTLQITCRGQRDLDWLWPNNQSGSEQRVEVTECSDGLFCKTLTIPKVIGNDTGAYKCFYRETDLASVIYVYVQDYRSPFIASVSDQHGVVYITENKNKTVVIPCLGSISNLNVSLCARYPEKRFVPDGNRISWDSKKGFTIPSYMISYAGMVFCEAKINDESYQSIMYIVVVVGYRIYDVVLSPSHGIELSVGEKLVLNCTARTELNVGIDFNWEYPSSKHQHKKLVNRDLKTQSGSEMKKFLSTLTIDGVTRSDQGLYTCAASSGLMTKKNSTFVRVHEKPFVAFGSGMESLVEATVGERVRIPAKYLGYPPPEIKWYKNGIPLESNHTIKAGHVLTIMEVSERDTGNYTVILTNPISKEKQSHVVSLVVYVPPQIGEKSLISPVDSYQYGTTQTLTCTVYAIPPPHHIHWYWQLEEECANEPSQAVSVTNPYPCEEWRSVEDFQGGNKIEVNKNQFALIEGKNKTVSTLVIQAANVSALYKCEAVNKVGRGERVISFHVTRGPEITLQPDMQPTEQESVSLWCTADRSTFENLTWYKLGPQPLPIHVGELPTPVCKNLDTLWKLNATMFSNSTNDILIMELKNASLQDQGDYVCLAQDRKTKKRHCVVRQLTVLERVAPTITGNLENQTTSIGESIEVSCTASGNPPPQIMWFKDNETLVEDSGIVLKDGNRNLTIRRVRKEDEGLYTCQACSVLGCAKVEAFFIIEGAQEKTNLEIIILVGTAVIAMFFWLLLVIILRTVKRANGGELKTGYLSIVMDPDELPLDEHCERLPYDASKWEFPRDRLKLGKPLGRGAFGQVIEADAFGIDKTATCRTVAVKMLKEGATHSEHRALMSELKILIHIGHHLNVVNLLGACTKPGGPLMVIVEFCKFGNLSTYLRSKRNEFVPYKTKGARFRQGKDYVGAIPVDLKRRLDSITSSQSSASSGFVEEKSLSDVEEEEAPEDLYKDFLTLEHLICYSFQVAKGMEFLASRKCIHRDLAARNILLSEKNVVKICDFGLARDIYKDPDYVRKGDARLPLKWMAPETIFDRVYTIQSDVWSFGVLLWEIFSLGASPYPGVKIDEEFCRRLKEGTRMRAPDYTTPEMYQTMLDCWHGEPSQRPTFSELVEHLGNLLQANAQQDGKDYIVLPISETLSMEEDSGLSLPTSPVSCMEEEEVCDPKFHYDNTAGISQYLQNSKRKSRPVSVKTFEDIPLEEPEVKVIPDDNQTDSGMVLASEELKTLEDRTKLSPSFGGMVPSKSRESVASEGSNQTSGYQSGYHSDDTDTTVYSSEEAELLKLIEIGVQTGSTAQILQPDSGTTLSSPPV
assay.readout: pIC50
Please treat pIC50 as minus the base-10 logarithm of the molar concentration.

Specify measured pIC50 for C[C@@H](C(=O)N1CCN(c2ccc(-c3cc(-c4cnn(C)c4)cn4ncc(C#N)c34)cn2)CC1)c1ccccc1 .
5.75

Specify measured pIC50 for C[C@@H](O)C(=O)NC1CCN(c2ccc(-c3cc(-c4cnn(C)c4)cn4ncc(C#N)c34)cn2)CC1 .
5.92

Specify measured pIC50 for Cn1cc(-c2cc(-c3ccc(N4CCN(C(=O)[C@H]5CCCO5)CC4)nc3)c3c(C#N)cnn3c2)cn1 .
6.36

###

molecular target: N-terminal GST tagged recombinant human RET cytoplasmic domain (aa 658-end), wild type RET kinase (Homo sapiens (Human), UniProt P07949); assay: RET Enzyme Assay (HTRF KinEASE-TK), wild type RET; format: biochemical; settings: wild type RET, 1 mM ATP
Sequence (P07949 658-1114): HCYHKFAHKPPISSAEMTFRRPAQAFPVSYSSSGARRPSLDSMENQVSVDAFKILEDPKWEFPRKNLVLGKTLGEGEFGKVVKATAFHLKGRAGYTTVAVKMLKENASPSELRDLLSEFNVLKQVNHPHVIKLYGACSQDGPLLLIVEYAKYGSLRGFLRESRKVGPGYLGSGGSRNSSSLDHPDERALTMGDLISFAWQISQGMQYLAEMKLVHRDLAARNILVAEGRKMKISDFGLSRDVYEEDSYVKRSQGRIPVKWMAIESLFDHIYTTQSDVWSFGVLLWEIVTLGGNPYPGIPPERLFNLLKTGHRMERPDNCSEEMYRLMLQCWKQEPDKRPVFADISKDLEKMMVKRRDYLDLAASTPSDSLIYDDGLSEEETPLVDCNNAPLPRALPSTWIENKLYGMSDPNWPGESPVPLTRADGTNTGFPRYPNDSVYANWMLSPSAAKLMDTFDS
Structures can show the parent of a compound that is named as a salt.
assay.readout: IC50 (nM)
Value expressed in nM; do not type the unit.

Specify measured IC50 for Cc1cc(-c2cc(-c3cnn(C)c3)cn3ncc(C#N)c23)cnc1N1CCN(C(=O)CC(C)(C)O)CC1 [Example 277] .
300

Specify measured IC50 for Cn1cc(-c2cc(-c3ccc(N4CCC(C(=O)NOCCO)CC4)nc3)c3c(C#N)cnn3c2)cn1 [Example 566] .
9

Specify measured IC50 for COc1ccc(CN2CCN(c3ccc(-c4cc(-c5cnn(C(C)C)c5)cn5ncc(C#N)c45)cn3)CC2)cn1 [Example 697] .
28.1

Specify measured IC50 for COCC(C)NC(=O)C1(C)CCN(c2ccc(-c3cc(-c4cnn(C)c4)cn4ncc(C#N)c34)cn2)CC1 (stereo not drawn) [Example 252] .
11.6

Specify measured IC50 for Cc1cccc(CN2CCN(c3ccc(-c4cc(-c5cnn(C)c5)cn5ncc(C#N)c45)cn3)CC2)n1 [Example 433] .
9.7

Specify measured IC50 for Cn1cc(-c2cc(-c3ccc(N4CCNCC4)nc3)c3c(Cl)cnn3c2)cn1 [Example 326, dihydrochloride] .
75

###

biological target: human KDR protein in HEK-293 cells (Homo sapiens (Human)); test: KDR Cell Assay (phospho-KDR in HEK-293 cells expressing inducible KDR); type: cell-based; details: pKDR Cell HEK 10% FBS IC50, HEK-293 cells expressing inducible KDR, VEGF stimulated
Binary call on IC50 with cut-off 0.7 µM: strictly below means 1, and equality or higher means -1.

Lab log: compare recorded IC50 with 0.7 µM; is it strictly lower for Cc1ccnc(CN2CCN(c3ccc(-c4cc(-c5cnn(C)c5)cn5ncc(C#N)c45)cn3)CC2)c1 [Example 443] ?
1

Lab log: compare recorded IC50 with 0.7 µM; is it strictly lower for CC(C)Cn1cc(-c2cc(-c3ccc(N4CCN(Cc5ccccc5)CC4)nc3)c3c(C#N)cnn3c2)cn1 [Example 612] ?
1

Lab log: compare recorded IC50 with 0.7 µM; is it strictly lower for CCc1cnn2cc(-c3cnn(C)c3)cc(-c3ccc(N4CCN(C(=O)[C@H](O)c5ccccc5)CC4)nc3)c12 [Example 658] ?
-1

Lab log: compare recorded IC50 with 0.7 µM; is it strictly lower for Cn1cc(-c2cc(-c3ccc(N4CCN(Cc5ccc(F)cc5F)CC4)nc3)c3c(C#N)cnn3c2)cn1 [Example 426] ?
-1

Lab log: compare recorded IC50 with 0.7 µM; is it strictly lower for Cn1cc(-c2cc(-c3ccc(N4CCC5(CCN(C(=O)OC(C)(C)C)C5)C4)nc3)c3c(C#N)cnn3c2)cn1 (centres unmarked) [Example 519] ?
-1

Lab log: compare recorded IC50 with 0.7 µM; is it strictly lower for Cn1cc(-c2cc(-c3ccc(N4CCN(Cc5cccnc5)CC4)nc3)c3c(C#N)cnn3c2)cn1 [Example 471] ?
-1

Lab log: compare recorded IC50 with 0.7 µM; is it strictly lower for Cn1cc(-c2cc(-c3ccc(N4CCN(CCOC(F)(F)F)CC4)nc3)c3c(C#N)cnn3c2)cn1 [Example 398] ?
-1

Lab log: compare recorded IC50 with 0.7 µM; is it strictly lower for Cn1cc(-c2cc(-c3ccc(N4CCC(C(=O)NOC(C)(C)C)CC4)nc3)c3c(C#N)cnn3c2)cn1 [Example 565] ?
1

###

Please go through the items and note down their IC50.
target: human KDR protein in HEK-293 cells (Homo sapiens (Human), UniProt P35968); test: KDR Cell Assay (phospho-KDR in HEK-293 cells expressing inducible KDR); format: cell-based; conditions: pKDR Cell HEK 10% FBS IC50, HEK-293 cells expressing inducible KDR, VEGF stimulated
Where a name gives a salt, the structure may show the parent alone.

Specify measured IC50 for N#Cc1cnn2cc(-c3cnn(C(F)F)c3)cc(-c3ccc(N4CCN(Cc5ccccn5)CC4)nc3)c12 [Example 586] .
≥ 5000 nM

Specify measured IC50 for Cn1cc(-c2cc(-c3ccc(N4CCC5(CC4)CC(N)C5)nc3)c3c(C#N)cnn3c2)cn1 [Example 544, dihydrochloride] .
234 nM

Specify measured IC50 for Cn1cc(-c2cc(-c3ccc(N4CCC5(CCCOC5)C4)nc3)c3c(C#N)cnn3c2)cn1 (stereo not drawn) [Example 529] .
≥ 5000 nM

The reported numbers originate from patent US10023570B2.
